# test_system: T1, Coa-R0474-505 (recombinant protein) (Staphylococcus aureus strain Newman)
# T1 chain: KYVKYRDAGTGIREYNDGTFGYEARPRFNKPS
# protocol_summary: apparent Kd from half-maximal binding in ELISA (GraphPad Prism)
recorded_metric: Kd
Kindly report the value followed by its unit.

Some binders with known Kd results, for comparison:
>>> value_reported("FBE5-E5 (scFv, V domains shown) VH: QMQLVQSGGGVVQPGRSLRLSCAASGFTFSSYGMHWVRQAPGKGLEWVAVISYDGSNKYYADSVKGRFTISRDNSKNTLYLQMNSLRGEDTAVYYCAREGGWEPNGLDYWGQGTLVTVSS VL: QSVLTQPPSVSAAPGQKVTISCSGSSSNIGNNYVSWYQQLPGTAPKLLIYDNNKRPSGIPDRFSGSKSGTSATLGITGLQTGDEADYYCGTWDSSLSAEVFGGGTKLTVL")
"864 nM"
>>> value_reported("FBE5-C1 (scFv, V domains shown) VH: EVQLVETRGGVVQPGRSLRLSCAASGFTFSSYGMHWVRQAPGKGLEWVAVISYDGSNKYYADSVKGRFTISRDNSKNTLYLQMNSLRAEDTAVYYCAREGTYYYDSSGYYEGGFDYWGQGTLVTVSS VL: QSVLTQPPSASGTPGQRVTISCSGSSSNIGSGPVNWYQQLPGTAPKLLIYSDTRRPSGIPDRLSGSKSGTSASLGISGLQSEDEADYYCAAWDDSLNGYAFGSGTKVTVL")
"24.3 nM"
>>> value_reported("FBE5-F11 (scFv, V domains shown) VH: QVQLQESGGGVVQPGRSLRLSCAASGFTFSSYGMHWVRQAPGKGLEWVAVISYDGSNKYYADSVKGRFTISRDNSKNTLYLQMNSLRAEDTAVYYCAKDLASSGFDYWGQGTLVTVSS VL: QSVLTQPPSVSAAPGQKVTISCSGSSSNIGNNYVSWYQQLPGTAPKLLIYDNNKRPSGIPDRFSGSKSGTSATLGITGLQTGDEADYYCGTWDSSLSAEVFGGGTKLTVL")
"0.213 nM"

For the next question, use this binder.
Form: binder = FBE5-D9 (scFv, V domains shown) VH: QVQLVESGGGVVQPGRSLRLSCAASGFTFSSYGMHWVRQAPGKGLEWVAVISYDGSNKYYADSVKGRFTISRDNSKNTLYLQMNSLRAEDTAVYYCAKNQEWLVPGYWGQGTLVTVSS VL: QSALTQPASVSGSPGQSITISCTGTSSDVGGYNYVSWYQQHPGKAPKLMIYDVSNRPSGVSNRFSGSKSGNTASLTISGLQAEDEADYYCSSYTSSSTLVFGGGTKLTVL ; Kd = 1.14 nM
